Test system: human apolipoprotein B mRNA
Experiment: Inhibition of human apolipoprotein B mRNA levels in HepG2 cells, quantitative real-time PCR
Assay type: cell-based
Details: HepG2 cells; human apolipoprotein B mRNA; oligonucleotides targeting genomic sequence SEQ ID NO 334; averages from two experiments
In the oligonucleotide strings, read from the 5' end, every base follows the letter of its sugar. An asterisk marks phosphorothioate; unmarked linkages are phosphodiester. Other units and linkages are bracketed, terminal groups are in braces. A string of capitals states the bases alone. e = 2'-O-(2-methoxyethyl) (MOE); [5mC] = 5-methylcytosine; d = 2'-deoxy (DNA)
attribute measured: % INHIB (%)
I only need the number, in %, no unit after it.

The recorded % INHIB for entry 301180 (antisense eG*eA*eA*eT*eA*d[5mC]*dT*d[5mC]*dA*d[5mC]*d[5mC]*dT*dT*d[5mC]*dT*eG*e[5mC]*eT*eT*eG) [compound 301180] equals 6

The recorded % INHIB for entry 301070 (eG*eT*eT*eG*eG*dA*d[5mC]*dA*dG*dT*d[5mC]*dA*dT*dT*d[5mC]*eT*eT*eT*eT*eG; antisense) [compound 301070] equals 38

The recorded % INHIB for entry 301058 (eA*eG*eG*eA*eG*dG*dA*dT*dG*dT*d[5mC]*d[5mC]*dT*dT*dT*eT*eA*eT*eT*eG; antisense) [compound 301058] equals 27

The recorded % INHIB for entry 301124 (eT*eT*eT*e[5mC]*e[5mC]*dA*dA*dT*dG*dA*d[5mC]*d[5mC]*dT*dG*d[5mC]*eA*eT*eT*eG*eA; antisense) [compound 301124] equals 48

The recorded % INHIB for entry 301115 (antisense e[5mC]*eA*e[5mC]*eA*eA*dG*dA*dG*dT*dA*dA*dG*dG*dA*dG*e[5mC]*eA*eG*eA*eG) [compound 301115] equals 39

The recorded % INHIB for entry 301069 (eG*eG*e[5mC]*eT*eG*dA*dA*dG*d[5mC]*d[5mC]*d[5mC]*dA*dT*dG*d[5mC]*eT*eG*eA*e[5mC]*eT; antisense) [compound 301069] equals 44

The recorded % INHIB for entry 301155 (eA*eA*eA*eG*eA*dA*dT*dT*dA*d[5mC]*d[5mC]*d[5mC]*dT*d[5mC]*d[5mC]*eA*e[5mC]*eT*eG*eA; antisense) [compound 301155] equals 33

The recorded % INHIB for entry 301076 (e[5mC]*e[5mC]*eA*eG*eT*dA*dT*dT*dT*d[5mC]*dA*d[5mC]*dG*d[5mC]*d[5mC]*eA*eA*eT*e[5mC]*e[5mC]; antisense) [compound 301076] equals 36

The recorded % INHIB for entry 301091 (antisense eG*eA*eG*eA*eT*dT*dG*dG*dA*dG*dA*d[5mC]*dG*dA*dG*e[5mC]*eA*eT*eT*eT) [compound 301091] equals 35

The recorded % INHIB for entry 301054 (eT*e[5mC]*e[5mC]*eT*e[5mC]*d[5mC]*dA*dT*dA*d[5mC]*d[5mC]*dT*dT*dG*d[5mC]*eA*eG*eT*eT*eG; antisense) [compound 301054] equals 0

The recorded % INHIB for entry 301139 (eT*e[5mC]*eA*eA*eG*dA*dA*dT*dA*dA*dG*d[5mC]*dT*d[5mC]*d[5mC]*eA*eG*eA*eT*e[5mC]; antisense) [compound 301139] equals 41

The recorded % INHIB for entry 301137 (eA*eG*eT*eG*eG*dA*dA*dG*dT*dT*dT*dG*dG*dT*d[5mC]*eT*e[5mC]*eA*eT*eT; antisense) [compound 301137] equals 41

The recorded % INHIB for entry 301107 (antisense eT*eT*e[5mC]*eT*eT*dA*dG*dT*dA*d[5mC]*d[5mC]*dT*dG*dG*dA*eA*eG*eA*eT*eG) [compound 301107] equals 23

The recorded % INHIB for entry 301198 (antisense e[5mC]*eG*eG*eT*eG*d[5mC]*dA*d[5mC]*d[5mC]*d[5mC]*dT*dT*dT*dA*d[5mC]*e[5mC]*eT*eG*eA*eG) [compound 301198] equals 28

All values here come from patent US7803930B2.
